- test.protocol: Probe fluorescence intensity change with UCB:BSA
- Format: binding
- condition.details: 1:2 UCB:BSA, 500 nm
# ΔI/Io 1:2 UCB:BSA 500 nm >= -0.3 gives TRUE, anything below gives FALSE

[
  {
    "molecule": "L2P22 B1: FABP probe, mutations 18Y 31V 55V 72A vs SEQ ID NO: 2 (protein, listed as Rattus norvegicus, PEPTIDE (1)...(131) wild-type rat intestinal fatty acid binding protein) AFDGTWKVDRNENYEKFYEKMGINVVKRKLVAHDNLKLTITQEGNKFTVKESSNVRNIDVVFELGVDFAYSAADGTELTGTWTMEGNKLVGKFKRVDNGKELIAVREISGNELIQTYTYEGVEAKRIFKKE",
    "answer.label": "FALSE"
  },
  {
    "molecule": "L1P1 B4: FABP probe, mutations 14I 72W 117W vs SEQ ID NO: 2 (protein, listed as Rattus norvegicus, PEPTIDE (1)...(131) wild-type rat intestinal fatty acid binding protein) AFDGTWKVDRNENIEKFMEKMGINVVKRKLGAHDNLKLTITQEGNKFTVKESSNFRNIDVVFELGVDFAYSWADGTELTGTWTMEGNKLVGKFKRVDNGKELIAVREISGNELIQTWTYEGVEAKRIFKKE",
    "answer.label": "FALSE"
  },
  {
    "molecule": "ADIFAB2: acrylodan-derivatized rI-FABP with Ala substituted for Leu at position 72 (rI-FABP-L72A), SEQ ID NO: 4 (protein, listed as Rattus norvegicus, acrylodan label; MUTAGEN (72)...(72) rat intestinal fatty acid binding protein with alanine substitution for leucine at position 72) AFDGTWKVDRNENYEKFMEKMGINVVKRKLGAHDNLKLTITQEGNKFTVKESSNFRNIDVVFELGVDFAYSAADGTELTGTWTMEGNKLVGKFKRVDNGKELIAVREISGNELIQTYTYEGVEAKRIFKKDRGHHHHHH",
    "answer.label": "TRUE"
  },
  {
    "molecule": "L1P12 E8: FABP probe, mutations 14L 38A 72G 117F 114E vs SEQ ID NO: 2 (protein, listed as Rattus norvegicus, PEPTIDE (1)...(131) wild-type rat intestinal fatty acid binding protein) AFDGTWKVDRNENLEKFMEKMGINVVKRKLGAHDNLKATITQEGNKFTVKESSNFRNIDVVFELGVDFAYSGADGTELTGTWTMEGNKLVGKFKRVDNGKELIAVREISGNELEQTFTYEGVEAKRIFKKE",
    "answer.label": "FALSE"
  },
  {
    "molecule": "L1P1 C12: FABP probe, mutations 38I 72W 117W vs SEQ ID NO: 2 (protein, listed as Rattus norvegicus, PEPTIDE (1)...(131) wild-type rat intestinal fatty acid binding protein) AFDGTWKVDRNENYEKFMEKMGINVVKRKLGAHDNLKITITQEGNKFTVKESSNFRNIDVVFELGVDFAYSWADGTELTGTWTMEGNKLVGKFKRVDNGKELIAVREISGNELIQTWTYEGVEAKRIFKKE",
    "answer.label": "FALSE"
  },
  {
    "molecule": "L5P16 H4: FABP probe, mutations 126K 73F 72A vs SEQ ID NO: 2 (protein, listed as Rattus norvegicus, PEPTIDE (1)...(131) wild-type rat intestinal fatty acid binding protein) AFDGTWKVDRNENYEKFMEKMGINVVKRKLGAHDNLKLTITQEGNKFTVKESSNFRNIDVVFELGVDFAYSAFDGTELTGTWTMEGNKLVGKFKRVDNGKELIAVREISGNELIQTYTYEGVEAKKIFKKE",
    "answer.label": "FALSE"
  }
]
